system: M. tuberculosis H37Rv growth inhibition, 7H9 media; test: M. tuberculosis growth inhibition, HTS (AID 449762); details: measured here: IC90 growth inhibition;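 also: bacterial growth assessed after seven days of incubation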
Records with an inconclusive call do not appear.
Flag rule - IC90 less than 20 µM flags 1 (yes); the remaining entries get 0 (no).

Cc1c(Cl)ccc2c1NC(=O)[C@]21N[C@@H](Cc2ccccc2)[C@H]2C(=O)N(c3ccc(F)cc3)C(=O)[C@H]21
0 (no)
Cc1ccc(CN2CCC(c3cc(-c4ccc(Cl)cc4)n[nH]3)CC2)cc1
1 (yes)
O=C(CCc1ccc(Oc2cc([N+](=O)[O-])cc([N+](=O)[O-])c2)cc1)N1CCCCCC1
0 (no)
C=C(CCC(=O)c1ccccc1)C(=O)c1ccccc1
1 (yes)
Cn1nnnc1Sc1ncnc2scc(-c3cc4ccccc4o3)c12
1 (yes)

[Q] Bench note: check whether Cc1nn(-c2ccccc2)c2c1C(c1ccc([N+](=O)[O-])cc1)N1C(=N2)C(=O)Nc2ccccc21 (stereo not given) shows IC90 below 20 µM
[A] 0 (no)

[Q] Bench note: check whether CC1CC2=C(CC1/C=N/NC(N)=S)C(C)(C)CCC2 (stereo not given) shows IC90 below 20 µM
[A] 0 (no)

[Q] Bench note: check whether CN1C(C(=O)NCc2ccc(OC(F)(F)F)cc2)CC2Cn3c(nc4cc(Cl)c(Cl)cc43)C21 (stereo not given) shows IC90 below 20 µM
[A] 0 (no)

[Q] Bench note: check whether CC(C)(C)C1CCc2sc(-c3nnc(CCl)o3)cc2C1 (stereo not given) shows IC90 below 20 µM
[A] 1 (yes)
